Please go through the items and note down their IC50.
molecular target: GP IIb/IIIa (Homo sapiens, UniProt P05106+P08514); construct: GP IIb/IIIa is isolated from membranes of human blood platelets by triton X-100 extraction; experiment: Inhibition of binding of fibrinogen to isolated and immobilized GP IIb/IIIa (FB); details: biotin-labelled fibrinogen; GP IIb/IIIa isolated from human blood platelet membranes, bonded to microtitre plates; read-out: FB: IC50 (inhibition of the fibrinogen GPIIb/IIIa binding)
Sequence (P08514 32-887 limits assumed): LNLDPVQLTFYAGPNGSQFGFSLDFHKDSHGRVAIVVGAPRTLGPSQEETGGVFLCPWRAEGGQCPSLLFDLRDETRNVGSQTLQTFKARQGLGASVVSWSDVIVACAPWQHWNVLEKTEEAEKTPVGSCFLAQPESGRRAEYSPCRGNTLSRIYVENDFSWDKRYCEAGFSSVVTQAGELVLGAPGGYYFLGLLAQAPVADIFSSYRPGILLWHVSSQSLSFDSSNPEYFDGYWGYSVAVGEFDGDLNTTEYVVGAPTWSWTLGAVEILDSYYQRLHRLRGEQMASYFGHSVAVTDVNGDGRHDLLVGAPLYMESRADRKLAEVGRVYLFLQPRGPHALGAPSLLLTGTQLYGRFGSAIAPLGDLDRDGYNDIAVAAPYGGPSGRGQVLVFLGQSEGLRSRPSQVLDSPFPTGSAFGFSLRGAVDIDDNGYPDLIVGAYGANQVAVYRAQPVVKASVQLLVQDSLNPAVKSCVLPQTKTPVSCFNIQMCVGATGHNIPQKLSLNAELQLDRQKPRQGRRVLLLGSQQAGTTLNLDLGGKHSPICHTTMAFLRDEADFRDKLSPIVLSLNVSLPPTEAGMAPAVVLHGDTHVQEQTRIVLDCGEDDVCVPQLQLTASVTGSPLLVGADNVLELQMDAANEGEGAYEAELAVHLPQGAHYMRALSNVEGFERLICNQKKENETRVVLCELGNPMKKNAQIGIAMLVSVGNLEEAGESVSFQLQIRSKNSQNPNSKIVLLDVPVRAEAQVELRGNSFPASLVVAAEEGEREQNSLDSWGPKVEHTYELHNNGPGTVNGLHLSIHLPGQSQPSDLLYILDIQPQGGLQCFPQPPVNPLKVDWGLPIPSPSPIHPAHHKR
Sequence (P05106 27-788): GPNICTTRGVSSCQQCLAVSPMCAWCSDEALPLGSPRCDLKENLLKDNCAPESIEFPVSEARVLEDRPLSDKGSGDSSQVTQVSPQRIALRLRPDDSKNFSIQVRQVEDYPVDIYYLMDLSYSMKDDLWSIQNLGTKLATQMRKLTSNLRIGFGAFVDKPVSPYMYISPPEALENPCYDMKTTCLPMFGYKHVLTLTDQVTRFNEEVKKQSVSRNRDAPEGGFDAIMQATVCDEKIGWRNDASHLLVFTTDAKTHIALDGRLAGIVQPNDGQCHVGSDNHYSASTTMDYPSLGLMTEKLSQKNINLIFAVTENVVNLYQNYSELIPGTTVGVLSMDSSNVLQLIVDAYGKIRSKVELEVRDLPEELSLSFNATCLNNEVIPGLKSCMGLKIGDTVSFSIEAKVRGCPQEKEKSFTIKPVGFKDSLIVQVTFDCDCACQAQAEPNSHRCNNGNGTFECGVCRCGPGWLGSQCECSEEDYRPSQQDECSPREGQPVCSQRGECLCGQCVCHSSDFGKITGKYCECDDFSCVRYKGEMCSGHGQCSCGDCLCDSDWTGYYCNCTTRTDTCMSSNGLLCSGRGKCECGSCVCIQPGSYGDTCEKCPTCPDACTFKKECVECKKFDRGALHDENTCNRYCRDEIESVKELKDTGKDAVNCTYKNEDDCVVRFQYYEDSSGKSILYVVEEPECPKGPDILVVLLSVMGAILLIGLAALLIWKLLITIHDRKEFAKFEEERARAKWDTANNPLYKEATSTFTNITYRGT
Note: unit nM is implicit; provide only the numeric part.

Query (compound): COc1ccc(CCC(=O)N[C@@H](CCCNC(=O)Cc2ccc(C(=N)N)cc2)CC(=O)O)cc1 [Example 3] ; field requested: IC50 1.1

Which IC50 is reported for this compound? Cc1ccc(S(=O)(=O)N[C@@H](CCCNC(=O)Cc2ccc(C(=N)N)cc2)CC(=O)O)cc1 [Example 1] 7.6

Field request: IC50 | item: CC(C)CC(=O)N[C@@H](CCCCNC(=O)c1ccc(C(=N)N)cc1)CC(=O)O [Example 6] 0.5

Item under review: COc1ccc(CCC(=O)N[C@@H]2CC(=O)O[C@H](CNC(=O)Cc3ccc(C(=N)N)cc3)C2)cc1 [Example 7] . Reported IC50? 0.5

IC50 lookup needed for N=C(N)c1ccc(CC(=O)NCCC[C@@H](CC(=O)O)NC(=O)CC23CC4CC(CC(C4)C2)C3)cc1 [Example 4] , thanks. 2.2

Report IC50 for CC(C)CC(=O)N[C@@H]1CC(=O)O[C@H](CNC(=O)Cc2ccc(C(=N)N)cc2)C1 [Example 8] please. 0.9

Entry under review: N=C(N)c1ccc(CC(=O)NCCC[C@@H](CC(=O)O)NC(=O)CCC23CC4CC(CC(C4)C2)C3)cc1 [Example 5] . Reported IC50? 0.4

# input compound: CC(C)CC(=O)N[C@@H](CCCNC(=O)Cc1ccc(C(=N)N)cc1)CC(=O)O [Example 2] ; wanted: its IC50 1.7
